Measurement type: melting point (°C)
Quick reminder: number only, in °C, skip the unit.

Answered examples (8):
## Task Quickly give me recorded melting point for COc1ccc(-n2nccc2-c2ccc3noc(-c4ccc(Cl)cc4)c3c2)cc1 [Example 23]
## Result 177

## Task Quickly give me recorded melting point for Fc1ccc(-c2onc3ccc(-c4ccnn4-c4ccccn4)cc23)cc1 [Example 35]
## Result 175

## Task Quickly give me recorded melting point for Cc1ccc(-c2onc3ccc(-c4ccnn4-c4ccccc4F)cc23)cc1 [Example 3]
## Result 173

## Task Quickly give me recorded melting point for COc1ccc(-c2onc3ccc(-c4ccnn4-c4ccc(F)cc4F)cc23)cc1F [Example 40]
## Result 183

## Task Quickly give me recorded melting point for COc1ccc(-c2onc3ccc(-c4ccnn4-c4ccc(F)cc4)cc23)cc1 [Example 13]
## Result 153

## Task Quickly give me recorded melting point for Fc1ccccc1-n1nccc1-c1ccc2noc(-c3ccc(Cl)cc3)c2c1 [Example 5]
## Result 191

## Task Quickly give me recorded melting point for COc1ccc(-c2onc3ccc(-c4ccnn4-c4ccccc4F)cc23)cc1 [Example 6]
## Result 134

## Task Quickly give me recorded melting point for Fc1ccc(-n2nccc2-c2ccc3noc(-c4cccc(F)c4)c3c2)cc1 [Example 10]
## Result 176

Further cases:
## Task Quickly give me recorded melting point for Cc1ccc(-c2onc3ccc(-c4ccnn4-c4ccc(F)cc4)cc23)cc1 [Example 11]
## Result 158

## Task Quickly give me recorded melting point for Cc1ccc(-c2onc3ccc(-c4ccnn4-c4ccccc4Cl)cc23)cc1 [Example 43]
## Result 176

## Task Quickly give me recorded melting point for COc1ccc(-n2nccc2-c2ccc3noc(-c4cccc(F)c4)c3c2)cc1 [Example 21]
## Result 203

## Task Quickly give me recorded melting point for COc1ccc(-n2nccc2-c2ccc3noc(-c4ccc(C)cc4)c3c2)cc1 [Example 22]
## Result 159

## Task Quickly give me recorded melting point for Cc1ccc(-c2onc3ccc(-c4ccnn4-c4ccc(F)cc4F)cc23)cc1 [Example 30]
## Result 147

## Task Quickly give me recorded melting point for Cc1ccc(-c2onc3ccc(-c4ccnn4-c4ccc(C)cc4)cc23)cc1 [Example 16]
## Result 190

## Task Quickly give me recorded melting point for Fc1ccc(-c2onc3ccc(-c4ccnn4-c4ccc(F)cc4)cc23)cc1 [Example 8]
## Result 159

Just for reference, patent US9440962B2 is where these values come from.
